IC50, PSMA protein (Homo sapiens, UniProt Q04609): measured values
Measure: IC50 (nM)

compound="O=C(O)CC[C@H](NC(=O)N[C@@H](CCCCNC(=O)NCc1cn(CCF)nn1)C(=O)O)C(=O)O [Example 7-1]" assay_system="PSMA protein (Homo sapiens, UniProt Q04609)" assay_value=635
compound="O=C(O)CC[C@H](NC(=O)N[C@@H](CCCCNC(=O)N(Cc1cn(CCOCC[18F])nn1)c1ccncc1)C(=O)O)C(=O)O [Example 7-6]" assay_system="PSMA protein (Homo sapiens, UniProt Q04609)" assay_value=5.08
compound="O=C(O)CC[C@H](NC(=O)N[C@@H](CCCCNC(=O)Nc1ccc(I)cc1)C(=O)O)C(=O)O [Comparative Example 1, reference compound]" assay_system="PSMA protein (Homo sapiens, UniProt Q04609)" assay_value=30.7
compound="O=C(O)CC[C@H](NC(=O)N[C@@H](CCCCNC(=O)N(Cc1ccncc1)Cc1cn(CCOCC[18F])nn1)C(=O)O)C(=O)O [Example 7-5]" assay_system="PSMA protein (Homo sapiens, UniProt Q04609)" assay_value=11.8
